tgt: T1, human calcitonin receptor (human, UniProt P30988 25-474)
T1 sequence (looked up): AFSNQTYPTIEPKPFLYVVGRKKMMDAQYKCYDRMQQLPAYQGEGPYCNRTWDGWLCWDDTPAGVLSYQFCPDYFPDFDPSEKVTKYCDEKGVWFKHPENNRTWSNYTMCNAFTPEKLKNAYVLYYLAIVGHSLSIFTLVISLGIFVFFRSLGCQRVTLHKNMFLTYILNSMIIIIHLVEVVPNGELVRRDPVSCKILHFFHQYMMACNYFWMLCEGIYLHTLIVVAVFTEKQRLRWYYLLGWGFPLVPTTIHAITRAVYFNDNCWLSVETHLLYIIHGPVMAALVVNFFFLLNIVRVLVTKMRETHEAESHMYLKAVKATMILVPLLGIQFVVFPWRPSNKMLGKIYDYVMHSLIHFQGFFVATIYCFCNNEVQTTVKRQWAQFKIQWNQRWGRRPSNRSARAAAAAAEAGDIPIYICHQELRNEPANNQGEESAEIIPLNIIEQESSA
experimentDescription: cell-based or functional assay
resultType: Ratio hCT/hAmylin funct. (hCTR EC50 against hAmylin-R EC50)

KCNTATCATQRLANFLRHSSPNFGAIPSSTNVGHNTY (C20 diacid-gGlu on the alpha amino group of the N-terminal residue; Cys2-Cys7 disulfide and C-terminal amide as in human amylin, also called compound 40) [N^α1-[(4S)-4-carboxy-4-(19-carboxynonadecanoylamino)butanoyl]-[Arg17,Pro21,Pro27,His34]-h-amylin] ... 16.4
KCNTATCATQRLANFLRHSSPNFGAIPSSTNVGRNTY (C20 diacid-gGlu on the alpha amino group of the N-terminal residue; Cys2-Cys7 disulfide and C-terminal amide as in human amylin, also called compound 39) [N^α1-[(4S)-4-carboxy-4-(19-carboxynonadecanoylamino)butanoyl]-[Arg17,Pro21,Pro27,Arg34]-h-amylin] ... 11.6
KCNTATCATQRLANFLRHSSPNFGAIPSSTNVGSKTY (C20 diacid-gGlu on the alpha amino group of the N-terminal residue; Cys2-Cys7 disulfide and C-terminal amide as in human amylin, also called compound 34) [N^α1-[(4S)-4-carboxy-4-(19-carboxynonadecanoylamino)butanoyl]-[Arg17,Pro21,Pro27,Lys35]-h-amylin] ... 8.4
KCNTATCATQRLAEFLRHSSPNFGAIPSSTNVGSNTY (C20 diacid-gGlu-2xOEG on the alpha amino group of the N-terminal residue; Cys2-Cys7 disulfide and C-terminal amide as in human amylin, also called compound 19) ... 17.4
KCNTATCATQRLANFLRHSSPNFGAIPSSTNVGSETY (C20 diacid-gGlu on the alpha amino group of the N-terminal residue; Cys2-Cys7 disulfide and C-terminal amide as in human amylin, also called compound 23) [N^α1-[(4S)-4-carboxy-4-(19-carboxynonadecanoylamino)butanoyl]-[Arg17,Pro21,Pro27,Glu35]-h-amylin] ... 8.9
KCNTATCATQRLANFLRHSSPNFGAIPSSTNVGSNTY (C20 diacid-gGlu-2xOEG on the alpha amino group of the N-terminal residue; Cys2-Cys7 disulfide and C-terminal amide as in human amylin, also called compound 24) ... 23.1
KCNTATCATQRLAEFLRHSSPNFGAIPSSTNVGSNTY (C20 diacid-gGlu on the alpha amino group of the N-terminal residue; Cys2-Cys7 disulfide and C-terminal amide as in human amylin, also called compound 9) [N^α1-[(4S)-4-carboxy-4-(19-carboxynonadecanoylamino)butanoyl]-[Glu14,Arg17,Pro21,Pro27]-h-amylin] ... 7.4
